target: GABA-A receptor; anion channel (Rattus norvegicus) (UniProt O09028+P15431+P18506+P18508+P19969+P20236+P23574+P23576+P28471+P28473+P30191+P62813+P63079+P63138+Q91ZM7+Q9ES14); test: Ratio between Ki value (acid) / Ki value (ester) was determined; assay type: protein-complex assay
Would you please tag the item satisfied when its Ratio is 90 or above, and not satisfied when it is below?

Exercise: Entry O=C(C[C@@H]1N=C(c2ccccc2F)c2cc(Cl)ccc2NC1=O)OCc1ccccc1 : is its Ratio no less than 90?
Solution: not satisfied

Exercise: Check if Ratio >= 90 (inclusive). Item: CCCCOC(=O)CC[C@@H]1N=C(c2ccccc2F)c2cc(Cl)ccc2NC1=O
Solution: not satisfied

Exercise: Is it the case that COC(=O)CCNC1N=C(c2ccccc2Cl)c2cc(Cl)ccc2NC1=O (stereo not given) has Ratio reaching or exceeding 90?
Solution: not satisfied

Exercise: Does the molecule COC(=O)CCN[C@@H]1N=C(c2ccccc2Cl)c2cc(Cl)ccc2NC1=O have recorded Ratio that is 90 or more?
Solution: not satisfied

Exercise: I'd appreciate it if you could say whether COC(=O)CCN[C@H]1N=C(c2ccccc2Cl)c2cc(Cl)ccc2NC1=O has Ratio at least equal to 90.
Solution: satisfied

Exercise: Does Ratio meet or surpass 90 for COC(=O)CC[C@@H]1N=C(c2ccccc2F)c2cc(Cl)ccc2NC1=O ?
Solution: satisfied

Exercise: State whether the measured Ratio reaches 90, counting equality as reaching it, for COC(=O)CN[C@@H]1N=C(c2ccccc2Cl)c2cc(Cl)ccc2NC1=O
Solution: not satisfied

Exercise: Is reported Ratio greater than or equal to 90 here: COC(=O)CN[C@H]1N=C(c2ccccc2Cl)c2cc(Cl)ccc2NC1=O
Solution: satisfied

Exercise: Would you say CC(C)OC(=O)CC[C@@H]1N=C(c2ccccc2F)c2cc(Cl)ccc2NC1=O shows Ratio at minimum 90?
Solution: satisfied

Data credit: ChEMBL document CHEMBL1134955
